- Assay overview: Metabolic stability in human liver microsomes assessed as compound remaining at 1 uM after 15 mins in presence of G-6-P, G-6-PDH, MgCl2 and NADP+ by LC-MS/MS analysis (reference value: 100%)
For each entry below, report its remaining at 0.25 h, 1 µM value.
Remember to follow the number with its unit.

Observe how each entry below is paired with its result.
Cc1cccc(-c2nc(CN3CCN(c4ccnc5cc(-c6cccnc6)ccc45)CC3)no2)c1C : 65.1%
CC(C)c1ccc(-c2nc(CN3CCN(c4ccnc5cc(Cl)ccc45)CC3)no2)cc1 : 82%
CC(C)c1ccc(-c2nc(CN3CCN(c4ccnc5cc(-c6cccnc6)ccc45)CC3)no2)cc1 : 74.1%

Consider the record given below.
Assign remaining at 0.25 h, 1 µM to the following record: c1cncc(-c2ccc3c(N4CCN(Cc5noc(C6CCCC6)n5)CC4)ccnc3c2)c1
60.8%
